Origin of measurements: ChEMBL document CHEMBL1772948

Test system: Toxoplasma gondii
Test: Antiparasitic activity against green fluorescent protein expressing […] deficient Toxoplasma gondii RH infected in HFF assessed as decrease in density of parasitophorous vacuoles at 10 uM treated immediately after infection measured after 24 hrs by microscopic analysis
Assay type: functional, organism-based
Calls of active or inactive are those of the source. The calls are words filed in the database; no cut-off is given here.
// allowed return values: Yes for active, No for inactive

Please review the following examples before continuing.
1. CC[C@H]1OC(=O)[C@H](C)[C@@H](O[C@H]2C[C@@](C)(OC)[C@@H](O)[C@H](C)O2)[C@H](C)[C@@H](O[C@@H]2O[C@H](C)C[C@H](N(C)C)[C@H]2O)[C@](C)(O)C[C@@H](C)CN(Cc2ccc(C)cc2)[C@H](C)[C@@H](O)[C@]1(C)O : Yes
2. CC[C@H]1OC(=O)[C@H](C)[C@@H](O[C@H]2C[C@@](C)(OC)[C@@H](O)[C@H](C)O2)[C@H](C)[C@@H](O[C@@H]2O[C@H](C)C[C@H](N(C)C)[C@H]2O)[C@](C)(O)C[C@@H](C)CN(CCCc2ccccc2)[C@H](C)[C@@H](O)[C@]1(C)O : Yes
3. CC[C@H]1OC(=O)[C@H](C)[C@@H](O[C@H]2C[C@@](C)(OC)[C@@H](O)[C@H](C)O2)[C@H](C)[C@@H](O[C@@H]2O[C@H](C)C[C@H](N(C)C)[C@H]2O)[C@](C)(O)C[C@@H](C)CN(C)[C@H](C)[C@@H](O)[C@]1(C)O : No
4. CC[C@H]1OC(=O)[C@H](C)[C@@H](O[C@H]2C[C@@](C)(OC)[C@@H](O)[C@H](C)O2)[C@H](C)[C@@H](O[C@@H]2O[C@H](C)C[C@H](N(C)C)[C@H]2O)[C@](C)(O)C[C@@H](C)CN(Cc2ccccc2)[C@H](C)[C@@H](O)[C@]1(C)O : Yes
5. CC[C@H]1OC(=O)[C@H](C)[C@@H](O[C@H]2C[C@@](C)(OC)[C@@H](O)[C@H](C)O2)[C@H](C)[C@@H](O[C@@H]2O[C@H](C)C[C@H](N(C)C)[C@H]2O)[C@](C)(O)C[C@@H](C)CN(CC2CCCCC2)[C@H](C)[C@@H](O)[C@]1(C)O : Yes

Enquiry: Any idea what this test logged for CC[C@H]1OC(=O)[C@H](C)[C@@H](O[C@H]2C[C@@](C)(OC)[C@@H](O)[C@H](C)O2)[C@H](C)[C@@H](O[C@@H]2O[C@H](C)C[C@H](N(C)C)[C@H]2O)[C@](C)(O)C[C@@H](C)CN(Cc2ccc(F)cc2)[C@H](C)[C@@H](O)[C@]1(C)O ?
Return: Yes
